assay-overview: Cmax in Wistar Han rat at 10 mg/kg, po by LC/MS method
Assay type: ADME, organism-based
Set-up: dose 10 mg/kg, route oral
conditions: in vivo
measured-quantity: Cmax (nM)
Give bare numbers, in nM.

COC(=O)N[C@H](C(=O)N1CCC[C@H]1c1ncc(-c2cc(F)c3c(c2)O[C@@H](c2ccc(C4CC4)s2)n2c-3cc3cc(-c4cnc([C@@H]5CCCN5C(=O)[C@@H](NC(=O)OC)C5CC6CCC(C5)O6)[nH]4)ccc32)[nH]1)C(C)C (some centres not stated)    24
COC(=O)N[C@H](C(=O)N1CCC[C@H]1c1ncc(-c2cc(F)c3c(c2)O[C@@H](c2ccc4c(c2)OCCC4)n2c-3cc3cc(-c4cnc([C@@H]5CCCN5C(=O)[C@@H](NC(=O)OC)[C@@H]5CCOC(C)(C)C5)[nH]4)ccc32)[nH]1)C(C)C    10
COC(=O)N[C@H](C(=O)N1CCC[C@H]1c1ncc(-c2cc(F)c3c(c2)O[C@@H](c2cc4c(s2)CCC4)n2c-3cc3cc(-c4cnc([C@@H]5CCCN5C(=O)[C@@H](NC(=O)OC)[C@@H]5CCOC(C)(C)C5)[nH]4)ccc32)[nH]1)C(C)C    290
CCc1ccc([C@@H]2Oc3cc(-c4cnc([C@@H]5CCCN5C(=O)[C@@H](NC(=O)OC)[C@@H]5CCOC(C)(C)C5)[nH]4)cc(F)c3-c3cc4cc(-c5cnc([C@@H]6CCCN6C(=O)[C@@H](NC(=O)OC)C(C)C)[nH]5)ccc4n32)s1    20

Please look at the following compound next.
Problem: Entry COC(=O)N[C@H](C(=O)N1CCC[C@H]1c1ncc(-c2cc(F)c3c(c2)O[C@@H](c2ccc4c(c2)OCCC4)n2c-3cc3cc(-c4cnc([C@@H]5CCCN5C(=O)[C@@H](NC(=O)OC)C5CCOCC5)[nH]4)ccc32)[nH]1)C(C)C has what Cmax?
Result: 32

src = ChEMBL document CHEMBL4177770
